Quick list: IC50 per entry.
# TARGET DESC: HLA-A*0101 (human)
# TEST METHOD NOTES: competition, purified HLA
# ASSAY SETUP: remark: other sources report otherwise
Write it as a number; the unit µM goes unstated.

# BINDER, NUMERIC RESULT
rows = [
    ("TLEKLTNTGLY (modifications not checked)", 0.077),
]

Item under review: WFHISCLTF (modifications not checked) . Reported IC50?
85.3

These data points were gathered from patent US20060079453A1.
